Test system: Saccharomyces cerevisiae BY4741 SeMeCo community
measurement-notes: z-score of subpopulation abundance vs DMSO median, subpopulation auxotrophic for LM; higher = larger share of this subpopulation than in DMSO controls
conditions-used: 10 µM; 24 h; SM minimal medium; subpopulation (auxotrophy): LM
Counter-ions that a name gives are not always drawn.
endpoint-name: z-score of subpopulation abundance

>>> measurement("CC[C@H]1OC(=O)[C@H](C)[C@@H](O[C@H]2C[C@@](C)(OC)[C@@H](O)[C@H](C)O2)[C@H](C)[C@@H](O[C@@H]2O[C@H](C)C[C@H](N(C)C)[C@H]2O)[C@](C)(O)C[C@@H](C)[C@@H]2N[C@@H](COCCOC)O[C@H]([C@H]2C)[C@]1(C)O")
0.49
>>> measurement("CO[C@@H]1[C@@H](O[C@@H]2O[C@H](C)[C@@H](O[C@H]3C[C@@](C)(O)[C@@H](O)[C@H](C)O3)[C@H](N(C)C)[C@H]2O)[C@@H](CC=O)C[C@@H](C)[C@@H](O[C@H]2CC[C@H](N(C)C)[C@@H](C)O2)/C=C/C=C/C[C@@H](C)OC(=O)C[C@H]1OC(C)=O")
1.53
>>> measurement("C=C[C@]1(C)C[C@@H](OC(=O)CS[C@@H]2C[C@H]3CC[C@@H](C2)N3C)[C@]2(C)[C@H](C)CC[C@]3(CCC(=O)[C@H]32)[C@@H](C)[C@@H]1O")
0.32
>>> measurement("CN(C)CCC[C@@]1(c2ccc(F)cc2)OCc2cc(C#N)ccc21 [Escitalopram Oxalate]")
0.48
